molecular target: human LPAAT-β (Homo sapiens, UniProt O15120); construct: the full-length human LPAAT-β cDNA was amplified by PCR; poly-histidine tag (N); the membrane fraction was used as the enzyme; assay: LPAAT-β cell-free assay; details: Sf9 cell membrane overexpressing recombinant LPAAT-β
pIC50: −log10 of the molar value.
Quantity: pIC50

- Structure as smiles: "COc1ccc(Cl)cc1-c1cc(Nc2ccc(CCO)cc2)nc(N)n1"
  Result: 7.34

A: Nc1nc(Nc2ccc(C(F)(F)F)cc2)cc(-c2cccc(Br)c2)n1
B: Cc1ccc(Cl)cc1-c1cc(Nc2ccc(C(F)(F)F)cc2)nc(N)n1
C: Nc1nc(Nc2ccc(CCO)cc2)cc(-c2cc(Cl)ccc2Cl)n1
D: CCOc1ccc(Cl)cc1-c1cc(Nc2ccc(CO)cc2)nc(N)n1
E: CCOc1ccc(Cl)cc1-c1cc(Nc2ccc([N+](=O)[O-])cc2)nc(N)n1
Hello, I need these entries ordered by pIC50, highest reading first. Thanks! Labels, ranked as asked.
E, C, D, B, A

I: CCOc1ccc(Cl)cc1-c1cc(Nc2ccc(CCO)cc2)nc(N)n1
II: Nc1nc(Nc2ccc(C(F)(F)F)cc2)cc(-c2cc(Br)ccc2Cl)n1
Pick one: I or II . Which has the bigger pIC50 number? Answer format: the label of the selected item.
I

----------
target: human LPAAT-β (Homo sapiens); construct: the full-length human LPAAT-β cDNA was amplified by PCR; poly-histidine tag (N); the membrane fraction was used as the enzyme; experiment: LPAAT-β cell-free assay; settings: Sf9 cell membrane overexpressing recombinant LPAAT-β
Quantity: IC50 (nM)

- Structure as smiles: "CC(=NO)c1ccc(Nc2cc(-c3cc(Cl)ccc3Cl)nc(N)n2)cc1"
  Result: 98
- Structure as smiles: "Cc1ccc(Nc2cc(-c3cc(Cl)ccc3C)nc(N)n2)cc1"
  Result: 94
- Structure as smiles: "CCOc1ccc(Cl)cc1-c1cc(Nc2ccc(CCCCO)cc2)nc(N)n1"
  Result: 120
- Structure as smiles: "COC(=O)c1ccc(Nc2cc(-c3cc(Cl)ccc3OC)nc(N)n2)cc1"
  Result: 600
- Structure as smiles: "CCOC(=O)c1cccc(Nc2cc(-c3cc(Br)ccc3OC)nc(N)n2)c1"
  Result: 260

A: Cc1ccc(Cl)cc1-c1cc(Nc2ccc(F)cc2)nc(N)n1
B: Nc1nc(Nc2ccc(Cl)cc2)cc(-c2cc(Br)ccc2OCc2ccc([N+](=O)[O-])cc2)n1
Which gives the smaller IC50 number: A or B ? Answer format: the label of the selected item.
B

----------
target: human LPAAT-β (Homo sapiens, UniProt O15120); construct: the full-length human LPAAT-β cDNA was amplified by PCR; poly-histidine tag (N); the membrane fraction was used as the enzyme; test: LPAAT-β cell-free assay; conditions: Sf9 cell membrane overexpressing recombinant LPAAT-β
Quantity: IC50 (nM)

1: CCc1ccc(Cl)cc1-c1cc(Nc2ccc(CCO)cc2)nc(N)n1
2: Nc1nc(Nc2ccc(C(F)(F)F)cc2)cc(-c2cc(Cl)cc(Cl)c2)n1
Which gives the smaller IC50 number: 1 or 2 ? Answer format: the label of the selected item.
1
(1: 100 nM, 2: 640 nM)

----------
Biological target: human LPAAT-β (Homo sapiens, UniProt O15120)
Construct: the full-length human LPAAT-β cDNA was amplified by PCR; poly-histidine tag (N); the membrane fraction was used as the enzyme
Sequence (O15120 24-278): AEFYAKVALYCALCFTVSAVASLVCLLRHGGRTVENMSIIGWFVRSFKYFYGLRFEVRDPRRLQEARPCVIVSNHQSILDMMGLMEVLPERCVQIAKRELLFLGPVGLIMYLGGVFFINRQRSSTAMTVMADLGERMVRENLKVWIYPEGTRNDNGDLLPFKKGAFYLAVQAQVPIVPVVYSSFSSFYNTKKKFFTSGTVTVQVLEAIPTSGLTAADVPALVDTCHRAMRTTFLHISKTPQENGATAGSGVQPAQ
Experiment: LPAAT-β cell-free assay
Details: Sf9 cell membrane overexpressing recombinant LPAAT-β
Quantity: IC50 (nM)

Worked cases, IC50 given:
- Structure as smiles: "Cc1nc(Nc2ccc3cn[nH]c3c2)cc(-c2cc(Cl)ccc2C)n1"
  IC50 (nM): 17
- Structure as smiles: "CCOc1ccc(Br)cc1-c1cc(Nc2ccc(C(=O)c3ccccc3)cc2)nc(N)n1"
  IC50 (nM): 210
- Structure as smiles: "COc1ccc(Cl)cc1-c1cc(Nc2ccc(Cl)cc2)nc(C)n1"
  IC50 (nM): 50
- Structure as smiles: "CCCOc1ccc(Br)cc1-c1cc(Nc2ccc(Cl)cc2)nc(N)n1"
  IC50 (nM): 8
- Structure as smiles: "Cc1ccc(Cl)cc1-c1cc(Nc2ccc(Cl)c(CO)c2)nc(N)n1"
  IC50 (nM): 190

P: Cc1ccc(Cl)cc1-c1cc(Nc2ccc(Br)cc2)ncn1
Q: CCOc1ccc(Br)cc1-c1cc(Nc2cnc3ccccc3c2)nc(N)n1
R: Cc1ccc(Br)cc1-c1cc(Nc2ccc(CCCCO)cc2)nc(N)n1
S: COc1ccc(Nc2cc(-c3cc(Cl)ccc3Cl)nc(N)n2)cc1
Hello, I need these entries ordered by IC50, highest reading first. Thanks! Labels, ranked as asked.
Q, R, S, P
